The measurements presented in this section are drawn from patent US20240309103A1.

This listing pairs binders with measured t½.
# system_under_test: T1, hNPR1-mFc:hANP or hNPR1-hFc:hANP complex (human, UniProt P01160 124-151)
# T1 construct: also called human NPR1 complexed to ANP
# test_name: SPR, mAb captured, 37C
# output: bare number, implied unit min

Illustrative cases are given below, each with its answer.
binder	test_value
mAb22810 (antibody, human IgG4, V domains shown) VH: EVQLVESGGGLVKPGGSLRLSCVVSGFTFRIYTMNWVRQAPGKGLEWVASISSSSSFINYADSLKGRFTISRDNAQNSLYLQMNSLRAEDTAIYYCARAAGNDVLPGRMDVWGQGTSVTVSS VL: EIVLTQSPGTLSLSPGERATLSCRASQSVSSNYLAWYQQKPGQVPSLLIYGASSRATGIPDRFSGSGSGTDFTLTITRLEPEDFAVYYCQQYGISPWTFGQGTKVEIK	11
mAb25479 (antibody, human IgG4, V domains shown) VH: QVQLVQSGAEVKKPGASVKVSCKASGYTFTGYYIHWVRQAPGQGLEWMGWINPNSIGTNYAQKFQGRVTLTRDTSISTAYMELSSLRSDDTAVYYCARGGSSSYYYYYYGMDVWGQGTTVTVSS VL: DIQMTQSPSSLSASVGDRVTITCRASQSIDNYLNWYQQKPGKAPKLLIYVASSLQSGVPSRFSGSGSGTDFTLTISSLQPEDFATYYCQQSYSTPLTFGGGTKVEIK	86.1
mAb25502 (antibody, human IgG4, V domains shown) VH: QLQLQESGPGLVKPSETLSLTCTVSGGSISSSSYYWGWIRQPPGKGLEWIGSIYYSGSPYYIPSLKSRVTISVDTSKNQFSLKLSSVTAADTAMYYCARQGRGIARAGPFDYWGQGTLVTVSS VL: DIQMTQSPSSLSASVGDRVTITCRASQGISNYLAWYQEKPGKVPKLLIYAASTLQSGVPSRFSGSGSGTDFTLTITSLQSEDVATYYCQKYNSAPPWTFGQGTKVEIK	24.7

Note: attention shifts to another entry.
Ask: Provide one value: measured t½ of mAb25491 (antibody, human IgG4, V domains shown) VH: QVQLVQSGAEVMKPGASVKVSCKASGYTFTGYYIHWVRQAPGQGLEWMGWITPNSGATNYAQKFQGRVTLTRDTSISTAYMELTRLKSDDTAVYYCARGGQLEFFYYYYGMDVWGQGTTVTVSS VL: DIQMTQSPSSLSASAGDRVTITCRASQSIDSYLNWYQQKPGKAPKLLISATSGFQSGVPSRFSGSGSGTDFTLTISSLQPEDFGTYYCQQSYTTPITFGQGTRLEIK
Reply: 104
